- studySystem: UniProt P10635
- Sequence (P10635 whole entry): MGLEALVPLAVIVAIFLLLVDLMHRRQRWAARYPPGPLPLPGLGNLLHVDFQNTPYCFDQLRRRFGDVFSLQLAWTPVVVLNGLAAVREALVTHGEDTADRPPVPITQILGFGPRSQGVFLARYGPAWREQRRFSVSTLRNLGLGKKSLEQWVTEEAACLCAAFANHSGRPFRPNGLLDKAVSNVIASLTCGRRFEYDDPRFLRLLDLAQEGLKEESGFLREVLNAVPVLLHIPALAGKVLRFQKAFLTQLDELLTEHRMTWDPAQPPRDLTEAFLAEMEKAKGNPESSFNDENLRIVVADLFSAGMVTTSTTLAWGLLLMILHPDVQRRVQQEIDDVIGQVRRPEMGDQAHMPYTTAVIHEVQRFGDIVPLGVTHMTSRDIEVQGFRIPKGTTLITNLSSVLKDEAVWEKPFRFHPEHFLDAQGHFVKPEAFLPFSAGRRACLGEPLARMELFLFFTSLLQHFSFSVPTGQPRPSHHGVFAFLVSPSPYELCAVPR
pIC50: −log10 of the molar value.
readoutLabel: pIC50

q: Which pIC50 reading was recorded for the compound O=C1c2c(O)c(=O)ccn2N([C@@H]2c3ccccc3SCc3c2ccc(F)c3F)[C@@H]2COCCN12 ?
a: < 4.70

* * *

- studySystem: cap-dependent endonuclease (RNP fraction, PB1-PB2-PA complex) (Influenza A virus)
- method: Measurement of cap-dependant endonuclease (CEN) inhibitory activity
- testParameters: RNP from A/WSN/33 virus, room temperature 60 minutes; read-out: CEN_IC50
Give pIC50 for every item shown.
Give bare numbers, as −log10 of the molar value.

Consider the following illustrative entries.
# compoundStructure, pIC50
records = [
    ("O=C1c2c(O)c(=O)ccn2N([C@@H]2c3cccc(F)c3SCc3cccc(F)c32)[C@@H]2COCCN12", 8.40),
    ("O=C1c2c(O)c(=O)ccn2N([C@H]2c3ccc(F)cc3CSc3ccccc32)[C@@H]2C[C@H](C(F)(F)F)CCN12", 8.41),
    ("O=C1c2c(O)c(=O)ccn2N([C@@H]2c3ccccc3SCc3cccc(O)c32)[C@@H]2COCCN12", 7.88),
    ("O=C1c2c(O)c(=O)ccn2N([C@@H]2c3ccccc3SCc3c2ccc(F)c3F)[C@@H]2CCCCN12", 9.24),
    ("O=C1c2c(O)c(=O)ccn2N([C@@H]2c3ccccc3SCc3c2ccc(F)c3F)[C@@H]2CC(F)(F)CCN12", 8.39),
    ("C[C@H]1CN2C(=O)c3c(O)c(=O)ccn3N([C@@H]3c4ccccc4SCc4c3ccc(F)c4F)[C@@H]2CO1", 8.65),
    ("O=C1c2c(O)c(=O)ccn2N([C@@H]2c3ccccc3SCc3cccc(F)c32)[C@@H]2CC3(CCN12)CC3", 8.46),
    ("O=C1c2c(O)c(=O)ccn2N([C@@H]2c3ccccc3SCc3c2ccc(F)c3F)[C@@H]2CC3(CCOCC3)CCN12", 8.83),
    ("O=C1c2c(O)c(=O)ccn2N([C@H]2c3ccccc3CSc3ccccc32)[C@@H]2COCCN12", 7.96),
    ("O=C1c2c(O)c(=O)ccn2N([C@H]2c3cc(F)ccc3CSc3ccccc32)[C@@H]2COCCN12", 7.82),
]

I need pIC50 for every entry listed below, if you could help.
1. O=C1c2c(O)c(=O)ccn2N([C@H]2c3ccccc3CSc3ccccc32)[C@@H]2CC3(CCN12)OCCO3
2. O=C1c2c(O)c(=O)ccn2N([C@@H]2c3ccccc3SCc3c2cccc3C(F)(F)F)[C@@H]2COCCN12
3. O=C1c2c(O)c(=O)ccn2N([C@@H]2c3ccccc3SCc3cccc(F)c32)[C@@H]2CC(F)(F)CCN12
4. O=C1c2c(O)c(=O)ccn2N([C@H]2c3cc(Cl)ccc3CSc3ccccc32)[C@@H]2COCCN12
5. C[C@@H]1CC[C@@H]2N(C1)C(=O)c1c(O)c(=O)ccn1N2[C@H]1c2ccc(F)cc2CSc2ccccc21
6. O=C1c2c(O)c(=O)ccn2N([C@H]2c3ccccc3CSc3ccccc32)[C@@H]2CCOCCN12
7. CC1(C)CCN2C(=O)c3c(O)c(=O)ccn3N([C@@H]3c4ccccc4SCc4cccc(F)c43)[C@@H]2C1
8. O=C1c2c(O)c(=O)ccn2N([C@H]2c3ccc(F)cc3CSc3ccccc32)[C@@H]2CC3(CCN12)CC3

a:
1. 8.09
2. 8.41
3. 8.42
4. 7.43
5. 8.58
6. 8.55
7. 8.79
8. 8.67

I need pIC50 for every entry listed below, if you could help.
1. C[C@H]1COC[C@@H]2N1C(=O)c1c(O)c(=O)ccn1N2[C@H]1c2ccccc2CSc2ccccc21
2. O=C1c2c(O)c(=O)ccn2N([C@H]2c3ccc(F)cc3CSc3ccccc32)[C@@H]2C[C@@H](C(F)(F)F)CCN12
3. O=C1c2c(O)c(=O)ccn2N([C@H]2c3cc(F)c(F)cc3CSc3ccccc32)[C@@H]2COCCN12
4. C[C@@H]1CCN2C(=O)c3c(O)c(=O)ccn3N([C@@H]3c4ccccc4SCc4cccc(F)c43)[C@@H]2C1
5. O=C1c2c(O)c(=O)ccn2N([C@@H]2c3ccccc3SCc3c2ccc(F)c3F)[C@@H]2CC3(CCN12)COC3
6. C[C@H]1CC[C@@H]2N(C1)C(=O)c1c(O)c(=O)ccn1N2[C@@H]1c2ccccc2SCc2c1ccc(F)c2F
7. O=C1c2c(O)c(=O)ccn2N([C@@H]2c3ccccc3SCc3cccc(F)c32)[C@@H]2COCCN12
8. C[C@@H]1CCN2C(=O)c3c(O)c(=O)ccn3N([C@H]3c4ccc(F)cc4CSc4ccccc43)[C@@H]2C1

a:
7.56
8.37
8.66
8.17
9.06
8.52
8.39
8.59

I need pIC50 for every entry listed below, if you could help.
1. C[C@H]1COC[C@@H]2N1C(=O)c1c(O)c(=O)ccn1N2[C@@H]1c2ccccc2SCc2cccc(F)c21
2. O=C1c2c(O)c(=O)ccn2N(C2c3ccccc3CCc3ccccc32)[C@@H]2COCCN12

a:
7.73
8.18

I need pIC50 for every entry listed below, if you could help.
1. CO[C@@H]1CCN2C(=O)c3c(O)c(=O)ccn3N([C@@H]3c4ccccc4SCc4c3ccc(F)c4F)[C@@H]2C1
2. O=C1c2c(O)c(=O)ccn2N([C@@H]2c3ccccc3SCc3c2ccc(F)c3F)[C@@H]2CSCCN12

a:
1. 8.56
2. 8.66

* * *

- method: physchem
- Format: physicochemical
- testParameters: pH 1.2, simulated gastric fluid, thermodynamic from solid; JP-1 solution, 1 hour at 37° C.; read-out: powder solubility, JP-1 solution
readoutLabel: solubility (µg/mL)
Numbers only, in µg/mL.

q: Which solubility reading was recorded for the molecule O=C1c2c(O)c(=O)ccn2N([C@@H]2c3ccccc3SCc3c2ccc(F)c3F)[C@@H]2COCCN12 [III-2] ?
a: 7.1

* * *

- method: in vivo
- testParameters: rat, SD rats, intravenous administration, read-out: elimination half-life (t1/2, z) (converted)
readoutLabel: half-life (h)
Answers are plain numbers, in h.

q: Which half-life reading was recorded for the compound O=C1c2c(O)c(=O)ccn2N([C@@H]2c3ccccc3SCc3c2ccc(F)c3F)[C@@H]2COCCN12 ?
a: 3.4

* * *

Give pIC50 for every item shown.
- studySystem: cap-dependent endonuclease (RNP fraction, PB1-PB2-PA complex) (Influenza A virus)
- method: Measurement of cap-dependant endonuclease (CEN) inhibitory activity
- testParameters: RNP from A/WSN/33 virus, room temperature 60 minutes; read-out: CEN_IC50
Answers are plain numbers, as −log10 of the molar value.

# molecule, pIC50
measured = [
    ("O=C1c2c(O)c(=O)ccn2N([C@H]2c3ccc(F)cc3CSc3ccccc32)[C@@H]2CC(F)(F)CCN12 [III-46]", 8.54),
    ("O=C1c2c(O)c(=O)ccn2N([C@H]2c3ccccc3CSc3ccccc32)[C@@H]2CSCCN12 [III-5]", 7.97),
    ("C[C@H]1COC[C@@H]2N1C(=O)c1c(O)c(=O)ccn1N2[C@@H]1c2cccc(F)c2SCc2cccc(F)c21 [III-28]", 7.97),
]

I need pIC50 for every entry listed below, if you could help.
1. O=C1c2c(O)c(=O)ccn2N([C@H]2c3ccccc3CSc3ccccc32)[C@@H]2CCCCN12 [III-25]
2. O=C1c2c(O)c(=O)ccn2N([C@@H]2c3ccccc3SCc3c2cccc3C(F)(F)F)[C@@H]2CCCCN12 [III-27]
3. O=C1c2c(O)c(=O)ccn2N([C@@H]2c3ccccc3SCc3c2ccc(F)c3F)[C@@H]2C[C@H](C(F)(F)F)CCN12 [III-38]
4. O=C1c2c(O)c(=O)ccn2N([C@@H]2c3ccccc3SCc3cccc(F)c32)[C@@H]2CCCCN12 [III-53]

a:
1. 8.53
2. 8.38
3. 8.08
4. 8.61
